- measurement target: human OCT1 (Homo sapiens, UniProt O15245)
- Sequence (O15245 1-554): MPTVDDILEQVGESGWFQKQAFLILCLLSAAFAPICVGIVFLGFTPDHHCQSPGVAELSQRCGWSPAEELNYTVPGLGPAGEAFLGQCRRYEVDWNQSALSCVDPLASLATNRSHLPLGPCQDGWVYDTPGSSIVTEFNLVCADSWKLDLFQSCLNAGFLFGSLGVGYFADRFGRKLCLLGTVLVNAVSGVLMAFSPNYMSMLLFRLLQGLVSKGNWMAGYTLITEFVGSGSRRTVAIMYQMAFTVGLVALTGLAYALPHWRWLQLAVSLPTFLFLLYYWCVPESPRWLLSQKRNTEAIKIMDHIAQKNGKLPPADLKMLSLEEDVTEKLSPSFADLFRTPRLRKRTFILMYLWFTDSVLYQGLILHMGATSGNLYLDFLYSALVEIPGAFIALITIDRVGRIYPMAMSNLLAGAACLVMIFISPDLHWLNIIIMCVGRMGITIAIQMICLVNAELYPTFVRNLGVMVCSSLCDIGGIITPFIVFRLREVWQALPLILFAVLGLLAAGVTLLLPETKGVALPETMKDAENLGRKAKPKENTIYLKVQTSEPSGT
reported metric: pIC50
// returns pIC50 (minus log10 of molar concentration), number only

Query block: Give reported pIC50 for N#CC[C@H](C1CCCC1)n1cc(-c2ncnc3[nH]ccc23)cn1 (human OCT1 (Homo sapiens, UniProt O15245))
Result block: 5.01

Query block: Look up and report measured pIC50 (human OCT1 (Homo sapiens, UniProt O15245)) for the following molecule: CCC(CC)COC(=O)[C@H](C)N[P@](=O)(OC[C@H]1O[C@@](C#N)(c2ccc3c(N)ncnn23)[C@H](O)[C@@H]1O)Oc1ccccc1
Result block: 5.00
